Origin of measurements: PubChem BioAssay AID1863

Can you tell me inhibition for the items I'm about to list?
test: PhoP-dependent GFP reporter repression – Salmonella Typhimurium, primary screen (AID 1863);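 note: 0% = low Mg2+ inducing control and 100% = high Mg2+ repressing control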; details: S. Typhimurium PhoP-regulated promoter GFP reporter, 4 h; at 50 µM; stronger effect = higher value
Hit rate of the full screen: of about 300,000 compounds, about 480 (0.16%) were called active. The list is a sample of the results. Measured potencies and affinities stand elsewhere.
One number for each entry, in %.

- CCn1c(=N)n(CC(=O)c2ccc(Br)s2)c2ccccc21: 9.45
- N=c1n(CC(=O)c2cccs2)c2ccccc2n1Cc1ccccc1: -1.64
- Cc1ccc(C)c(N2CCN(c3ccc([N+](=O)[O-])cn3)CC2)c1: 1.13

# per-item lookup of inhibition; items listed below
1. CC1CCN(S(=O)(=O)c2ccc3c(c2)c(=O)c(C(=O)N2CCOCC2)cn3C)CC1
2. CSc1ccc(CN(C)CC(=O)NCc2ccccc2)cc1
3. CCc1cc(CNC(=O)CC2C(=O)NCCN2Cc2c(F)cccc2Cl)on1 (stereo not given)
4. COCCCn1c(=O)c2sccc2n2c(CCCC(=O)N(C)Cc3ccco3)nnc12

Return:
1: -0.29; 2: -8.5; 3: -1.45; 4: -1.76

# per-item lookup of inhibition; items listed below
1. OCCN1CCN(C(c2cccs2)c2ccc3cccnc3c2O)CC1 (stereo not given)
2. NS(=O)(=O)c1ccc(CNC(=O)c2cc(-c3cccnc3)nc3ccc(Br)cc23)cc1
3. COc1ccc2c(CC(=O)Nc3ccc(OC)c(S(=O)(=O)N4CCOCC4)c3)coc2c1

Return:
1. -47.6
2. -5.23
3. 4.59
